B1: KRT34 (parent)
chain: PTVDLNQVLNETRSQYEALVETNR

Variants of: B1
Assay: protein stability index of a GFP-peptide fusion (GPS, HEK-293T) (PSI 1-6); higher = more stable;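 note: lentivirally expressed fusions sorted by FACS into six bins by GFP to DsRed ratio, PSI derived from sequencing read proportions per bin multiplied by bin number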
Details: c terminus: a fixed tail appended
measured parameter: protein stability index
Simply state the number, no unit and no words.

Given item `Y16L` , the value recorded as its protein stability index is 4.19

Entry `E17A` — recorded protein stability index = 3.77

For record `T2L` the listed protein stability index is 1.85

Memo: `E11V` , reported protein stability index: 4.44

The variant identified as `V8G` registered its protein stability index at 4.2

Would you kindly look at the next entry?
# protein stability index of `N6Y` = 1.71
